Test system: C. aahli
MEASUREMENT PROTOCOL: organism not typed
Design: Broth microdilution MIC (Sensititre plates, ARIS 2X) against soil bacterial isolates
ASSAY CONDITIONS: soil, Isolate No.=3-12-27
METRIC NAME: MIC

For this compound ( `NCC[C@H](O)C(=O)N[C@@H]1C[C@H](N)[C@@H](O[C@H]2O[C@H](CN)[C@@H](O)[C@H](O)[C@H]2O)[C@H](O)[C@H]1O[C@H]1O[C@H](CO)[C@@H](O)[C@H](N)[C@H]1O` ), measured MIC is ≤ 8 µg/mL

For this compound ( `O=C1CN(/N=C/c2ccc([N+](=O)[O-])o2)C(=O)N1` ), measured MIC is 64 µg/mL

For this compound ( `O=C(O)c1cn(C2CC2)c2cc(N3CCNCC3)c(F)cc2c1=O` ), measured MIC is ≤ 0.5 µg/mL

----------
Test system: S. maltophilia
MEASUREMENT PROTOCOL: microbe, parasite or virus in culture
Design: Broth microdilution MIC (Sensititre plates, ARIS 2X) against soil bacterial isolates
ASSAY CONDITIONS: Stenotrophomonas maltophilia, Isolate No.=2-1-3
METRIC NAME: MIC (mg/L)
// units = mg/L; emit number, no label

Consider the worked cases shown below.
MOL: C[C@@H](O)[C@H]1C(=O)N2C(C(=O)O)=C(SCCN=CN)C[C@H]12
MIC (mg/L): 16
//
MOL: CO/N=C(\C(=O)N[C@@H]1C(=O)N2C(C(=O)O)=C(COC(N)=O)CS[C@H]12)c1ccco1
MIC (mg/L): 32

The observed MIC for `CCN1CCN(C(=O)N[C@@H](C(=O)N[C@@H]2C(=O)N3[C@@H]2SC(C)(C)[C@@H]3C(=O)O)c2ccccc2)C(=O)C1=O` when tested with S. maltophilia stands at 64

The observed MIC for `CC(C)(O/N=C(\C(=O)N[C@@H]1C(=O)N2C(C(=O)[O-])=C(C[n+]3ccccc3)CS[C@H]12)c1csc(N)n1)C(=O)O` when tested with S. maltophilia stands at 4

----------
Recorded MIC values for a group of compounds are listed next.
Tested on: C. aahli
MEASUREMENT PROTOCOL: organism not typed
Design: Broth microdilution MIC (Sensititre plates, ARIS 2X) against soil bacterial isolates
ASSAY CONDITIONS: soil, Isolate No.=3-12-27

COMPOUND: CO/N=C(\C(=O)N[C@@H]1C(=O)N2C(C(=O)[O-])=C(C[N+]3(C)CCCC3)CS[C@H]12)c1csc(N)n1 [Cefepime]
VALUE: ≤ 4 µg/mL
--
COMPOUND: CC(C)(O/N=C(\C(=O)N[C@@H]1C(=O)N2C(C(=O)[O-])=C(C[n+]3ccccc3)CS[C@H]12)c1csc(N)n1)C(=O)O
VALUE: 4 µg/mL

Now for the compound whose MIC we want.
The observed MIC for `CCN1CCN(C(=O)N[C@@H](C(=O)N[C@@H]2C(=O)N3[C@@H]2SC(C)(C)[C@@H]3C(=O)O)c2ccccc2)C(=O)C1=O` when tested with C. aahli stands at ≤ 16 µg/mL

----------
Recorded MIC values for a group of compounds are listed next.
Test system: C. soldanellicola
MEASUREMENT PROTOCOL: organism not typed
Design: Broth microdilution MIC (Sensititre plates, ARIS 2X) against soil bacterial isolates
ASSAY CONDITIONS: soil, Isolate No.=3-7-16
// units = µg/mL; emit number, no label

COMPOUND: CO[C@@]1(NC(=O)C2SC(=C(C(N)=O)C(=O)O)S2)C(=O)N2C(C(=O)O)=C(CSc3nnnn3C)CS[C@@H]21 (stereo partly shown) [Cefotetan Na]
TARGET OR TEST SYSTEM: C. soldanellicola
MIC / µg/mL: 32

For this compound ( C[C@H]1[C@H](NC(=O)/C(=N\OC(C)(C)C(=O)O)c2csc(N)n2)C(=O)N1S(=O)(=O)O [Aztreonam] ), measured MIC is 32

For this compound ( NC[C@H]1O[C@H](O[C@H]2[C@H](O)[C@@H](O[C@H]3O[C@H](CO)[C@@H](O)[C@H](N)[C@H]3O)[C@H](N)C[C@@H]2N)[C@H](N)C[C@@H]1O [Tobramycin] ), measured MIC is 8

For this compound ( CO/N=C(\C(=O)N[C@@H]1C(=O)N2C(C(=O)O)=C(COC(N)=O)CS[C@H]12)c1ccco1 [Cefuroxime] ), measured MIC is 32

For this compound ( O=C1CN(/N=C/c2ccc([N+](=O)[O-])o2)C(=O)N1 [Nitrofurantoin] ), measured MIC is 64

For this compound ( COCC1=C(C(=O)O)N2C(=O)[C@@H](NC(=O)/C(=N\OC)c3csc(N)n3)[C@H]2SC1 [Cefpodoxime] ), measured MIC is 4

For this compound ( C[C@@H](O)[C@H]1C(=O)N2C(C(=O)O)=C(SCCN=CN)C[C@H]12 [Imipenem] ), measured MIC is 4

----------
Test system: C. soldanellicola
MEASUREMENT PROTOCOL: organism not typed
Set-up: Broth microdilution MIC (Sensititre plates, ARIS 2X) against soil bacterial isolates
ASSAY CONDITIONS: soil, Isolate No.=3-7-16
Recorded MIC values for a group of molecules are listed next.
// units = µg/mL; emit number, no label

Consider the worked cases shown below.
MOL: CO/N=C(\C(=O)N[C@@H]1C(=O)N2C(C(=O)O)=C(CSc3nc(=O)c(O)nn3C)CS[C@H]12)c1csc(N)n1
VALUE: 4

MOL: Cc1nnc(SCC2=C(C(=O)O)N3C(=O)[C@@H](NC(=O)Cn4cnnn4)[C@H]3SC2)s1
VALUE: 32

MOL: C[C@@H](O)[C@H]1C(=O)N2C(C(=O)O)=C(S[C@@H]3CN[C@H](C(=O)N(C)C)C3)[C@H](C)[C@H]12
VALUE: 2

For this molecule ( `NCC[C@H](O)C(=O)N[C@@H]1C[C@H](N)[C@@H](O[C@H]2O[C@H](CN)[C@@H](O)[C@H](O)[C@H]2O)[C@H](O)[C@H]1O[C@H]1O[C@H](CO)[C@@H](O)[C@H](N)[C@H]1O` ), measured MIC is 32

For this molecule ( `CO[C@@]1(NC(=O)Cc2cccs2)C(=O)N2C(C(=O)O)=C(COC(N)=O)CS[C@@H]21` ), measured MIC is 8

----------
System: S. maltophilia
MEASUREMENT PROTOCOL: microbe, parasite or virus in culture
Parameters: Broth microdilution MIC (Sensititre plates, ARIS 2X) against soil bacterial isolates
ASSAY CONDITIONS: Stenotrophomonas maltophilia, Isolate No.=2-1-3
METRIC NAME: MIC (µg/mL)
// units = µg/mL; emit number, no label

Consider the worked cases shown below.
COMPOUND: O=C1CN(/N=C/c2ccc([N+](=O)[O-])o2)C(=O)N1
TARGET OR TEST SYSTEM: S. maltophilia
MIC, µg/mL: 128
//
COMPOUND: CO[C@@]1(NC(=O)C2SC(=C(C(N)=O)C(=O)O)S2)C(=O)N2C(C(=O)O)=C(CSc3nnnn3C)CS[C@@H]21 (stereo partly drawn)
TARGET OR TEST SYSTEM: S. maltophilia
MIC, µg/mL: 4

Now for the compound whose MIC we want.
For this compound ( `C[C@H]1[C@H](NC(=O)/C(=N\OC(C)(C)C(=O)O)c2csc(N)n2)C(=O)N1S(=O)(=O)O` ), measured MIC is 16

----------
Tested on: S. maltophilia
MEASUREMENT PROTOCOL: microbe, parasite or virus in culture
Parameters: Broth microdilution MIC (Sensititre plates, ARIS 2X) against soil bacterial isolates
ASSAY CONDITIONS: Stenotrophomonas maltophilia, Isolate No.=2-1-3
METRIC NAME: MIC

COMPOUND: NC[C@H]1O[C@H](O[C@H]2[C@H](O)[C@@H](O[C@H]3O[C@H](CO)[C@@H](O)[C@H](N)[C@H]3O)[C@H](N)C[C@@H]2N)[C@H](N)C[C@@H]1O
TARGET OR TEST SYSTEM: S. maltophilia
MIC: ≤ 4 µg/mL
--
COMPOUND: C[C@@H](O)[C@H]1C(=O)N2C(C(=O)O)=C(S[C@@H]3CN[C@H](C(=O)N(C)C)C3)[C@H](C)[C@H]12
TARGET OR TEST SYSTEM: S. maltophilia
MIC: ≤ 1 µg/mL
--
COMPOUND: NCC[C@H](O)C(=O)N[C@@H]1C[C@H](N)[C@@H](O[C@H]2O[C@H](CN)[C@@H](O)[C@H](O)[C@H]2O)[C@H](O)[C@H]1O[C@H]1O[C@H](CO)[C@@H](O)[C@H](N)[C@H]1O
TARGET OR TEST SYSTEM: S. maltophilia
MIC: ≤ 8 µg/mL

Now for the compound whose MIC we want.
For this compound ( `O=C(O)c1cn(C2CC2)c2cc(N3CCNCC3)c(F)cc2c1=O` ), measured MIC is 1 µg/mL
